# system tested: T1, M1-2
# T1 construct: also called PD1 mutant M1-2
# experiment: scFv-phage ELISA
experimental readout: OD490

binder | quantitative readout
PD1-51D9 (antibody, V domains shown, scFv-phage in the screening ELISA; whole IgG in the other assays) VH: QVQLVESGAEVKKPGASVKLSCKASGYTFSSYWMHWVRQAPGQRLEWMGEINPGNGHTNYNEKFKSRVTITVDKSASTAYMELSSLRSEDTAVYYCAREGDGSYWGYFDSWGQGTPITVSS VL: DIVMTQTPLSLPVTPGEPASISCRSSQSLLHSNGNNYLDWYLQKPGQSPQLLIYLGSYRASGVPDRFSGSGSGTDFTLKISRVEAEDVGLYYCMQGLQIPSTFGPGTKVDIK | 0.4
